Source of measurements: ChEMBL document CHEMBL1201862

system: OVCAR-3; assay: NCI tumour cell line growth inhibition, 48 h
Activity calls are given as the source filed them. Cut-off read from the data, not from the text of the source: active = GI50 up to about 1.1 µM and inactive = higher.
Labels: active, inactive

molecule | class label
COC(=O)[C@]1(c2cc3ccccc3[nH]2)CC2CN(CC(=O)N(C)OC)C1C1OC(C)(C)OC21 (stereo partly specified) | inactive
COc1cc2c(c(OC)c1OC)-c1ccc(OC)c(=O)cc1[C@@H](N(C)C=O)CC2 | active
CN1CCN(c2cc3c(cc2F)c(=O)c(C(=O)O)cn3C2CC2)CC1CC#N (stereo unspecified) | inactive
COc1c2occc2c(N)c2ccc(=O)oc12 | inactive
CC1CN=C(N(C)C(=O)Nc2ccc(Cl)cc2)S1 (stereo unspecified) | inactive
OCC1OC(c2nc(C3=NCCCN3)cs2)C(O)C1O (stereo unspecified) | inactive
O=c1oc2ccc(Cl)cc2cc1-c1cn2cc(Cl)ccc2n1 | inactive
O=C1CSC(Cc2nc3ccccc3[nH]2)=N1 | inactive
Cc1ccc(S(=O)OC2c3ccccc3Cc3ccccc32)cc1 (stereo unspecified) | inactive
Cc1ccc(NC(=O)SCCC(=O)O)cc1NC(=O)SCCC(=O)O | inactive
CCOP(=O)(OCC)/C(C#N)=C/c1cccn1C | inactive
O=C(O)CO[C@@]12C#C/C=C\C#C[C@@H]3N(C(=O)Oc4ccccc4)c4ccccc4[C@]14O[C@@]34CCC2 | inactive
O=C1C(Cl)N(c2cccc([N+](=O)[O-])c2)C1c1c[nH]c2ccccc12 (stereo unspecified) | inactive
COC(=O)/C([Se]c1c(C)cc(C)cc1C)=C(/[Se]c1c(C)cc(C)cc1C)C(=O)OC | inactive
NCOC(=O)Cc1ccc(Br)cc1 | inactive
O=C(O)CCN(CCC(=O)O)c1ccc(/C=C2\SC(=S)NC2=O)cc1 | inactive
